# PROTOCOL TEXT: folding enthalpy; higher = less favourable; fluorescence melt of hairpins on a sequencing array, two-state fit
# TEST PARAMETERS: sodium 0.088 M
Give folding enthalpy for every item shown.
One number for each entry, in kcal/mol.

// solved cases for folding enthalpy follow
>>> result_value("GCCTACGAAAGTAACGGC ((((((....)))..)))")
-26.5
>>> result_value("GACGGGGGAAACCCTGTC (((.(((....))).)))")
-37.1
>>> result_value("GTGGTTGGAAACAACCGC (.(((((....))))).)")
-31

Here's the next entry for you.
# get_value(readout='folding enthalpy', item= GCATTTTCGAAAGAATGC (((..(((....)))))) ) -28.4

----------
Give Tm for every item shown.
# PROTOCOL TEXT: melting temperature; fluorescence melt of hairpins on a sequencing array, two-state fit, raised by 9.35 °C to match UV melts
# TEST PARAMETERS: sodium 0.088 M
One number for each entry, in °C.

// solved cases for Tm follow
>>> result_value("GCAGCGGCGAAAGCCTGC (((..(((....))))))")
52.2
>>> result_value("GGAGGTCCGAAAGGATCC (((..(((....))))))")
38.3
>>> result_value("GCGGGCGAAAGCCCCCGC ((((((....)))..)))")
52.1

# get_value(readout='Tm', item= GTACGCCCGAAAGGGTAC (((..(((....)))))) ) 33.2

----------
# PROTOCOL TEXT: melting temperature; fluorescence melt of hairpins on a sequencing array, two-state fit, raised by 9.35 °C to match UV melts
# TEST PARAMETERS: sodium 0.088 M
Friendly reminder: Tm below 50 °C is true, at or above is false.

Dear reviewer, please state whether GTACGCCGAAAGGCATAC (((.(((....))).))) has Tm strictly beneath 50 °C. true

----------
# PROTOCOL TEXT: folding enthalpy; higher = less favourable; fluorescence melt of hairpins on a sequencing array, two-state fit
# TEST PARAMETERS: sodium 0.088 M
Give folding enthalpy for every item shown.
Kindly report the value followed by its unit.

// solved cases for folding enthalpy follow
>>> result_value("GAGGGCGAAAGCCTACTC ((((((....)))..)))")
"-11 kcal/mol"
>>> result_value("GACTTGGCGAAAGCCGTC (((..(((....))))))")
"-7.4 kcal/mol"
>>> result_value("GCTCGCCGAAAGGCAAGC (((.(((....))).)))")
"-29.1 kcal/mol"
>>> result_value("GATCTTAACAAAGATC ((((((....))))))")
"-33 kcal/mol"

Here's the next entry for you.
# get_value(readout='folding enthalpy', item= GTCTAACGAAAGTTGAC (((.(((....)))))) ) -24.9 kcal/mol

----------
# PROTOCOL TEXT: melting temperature; fluorescence melt of hairpins on a sequencing array, two-state fit, raised by 9.35 °C to match UV melts
# TEST PARAMETERS: sodium 0.088 M
MEASURED ENDPOINT: Tm (°C)
Answers are plain numbers, in °C.

>>> result_value("GACAGCGGAAACGTTGTC ((((.((....)).))))")
51.9

Each sequence below has a recorded value; state its Tm.
1. CGCTTCGGAAACGACGCG (((.(((....))).)))
2. GCACTGCGAAAGCACAGC ((..(((....)))..))
3. GATTCGGGAAACCAAATC ((((.((....)).))))

[51.5, 29.2, 30.1]

----------
# PROTOCOL TEXT: folding enthalpy; higher = less favourable; fluorescence melt of hairpins on a sequencing array, two-state fit
# TEST PARAMETERS: sodium 0.088 M
Decision: folding enthalpy compared against -10 kcal/mol; not below it gives Y, below it gives N.

Please review the entries below; each comes with its answer.
>>> answer_label("GTTCTGGCGAAAGCCAAC (((..(((....))))))")
"Y"
>>> answer_label("GATATTACGAAAGTAATC (((..(((....))))))")
"N"
>>> answer_label("GCGTTGCGAAAGCCCCGC (((..((....))..)))")
"N"

folding enthalpy >= -10 kcal/mol for CGCACGGAAACGTTGCG ((((((....))).))) ? N

folding enthalpy >= -10 kcal/mol for GTAACCGCGAAAGCGTAC (((..(((....)))))) ? Y

folding enthalpy >= -10 kcal/mol for GTCAACGAAAGTTTGAC ((((((....))).))) ? N

folding enthalpy >= -10 kcal/mol for CTTATGAAAATAAG (((((....))))) ? N

folding enthalpy >= -10 kcal/mol for GCTGACGGAAACGTCAAC (.(((((....))))).) ? N

folding enthalpy >= -10 kcal/mol for GCAAACGAAAGTTTTGC ((((((....))).))) ? N

folding enthalpy >= -10 kcal/mol for GCGTGGTCACGC ((((....)))) ? N

folding enthalpy >= -10 kcal/mol for GTTGGCCGAAAGGCAAAC (((.(((....))).))) ? N

folding enthalpy >= -10 kcal/mol for GGAACCCCGAAAGGGTCC (((..(((....)))))) ? N

folding enthalpy >= -10 kcal/mol for GCTATGCGAAAGCACAGC (((.(((....))).))) ? N

----------
Give folding enthalpy for every item shown.
# PROTOCOL TEXT: folding enthalpy; higher = less favourable; fluorescence melt of hairpins on a sequencing array, two-state fit
# TEST PARAMETERS: sodium 0.088 M
One number for each entry, in kcal/mol.

// solved cases for folding enthalpy follow
>>> result_value("GATCTACTCTTAGATC ((((((....))))))")
-29.7
>>> result_value("GCGTTGCGAAAGCAAGGC ((.((((....)))).))")
-30.3

Here's the next entry for you.
# get_value(readout='folding enthalpy', item= GATCTTGGCGAAGATC ((((((....)))))) ) -30.8

----------
# PROTOCOL TEXT: melting temperature; fluorescence melt of hairpins on a sequencing array, two-state fit, raised by 9.35 °C to match UV melts
# TEST PARAMETERS: sodium 0.088 M
Just so you know, the groups by Tm go like this: bottom: < 40 °C; middle: ≥ 40 °C and < 50 °C; top: ≥ 50 °C

Please review the entries below; each comes with its answer.
>>> answer_label("GGTGTAGGAAACTACGTC (..((((....))))..)")
"bottom"
>>> answer_label("GATCGGCCTCCGATC ((((((...))))))")
"top"
>>> answer_label("GTACCCGAAAGGGGCTAC ((((((....)))..)))")
"middle"
>>> answer_label("GAGAGCGAAAGCTACTC ((((((....))).)))")
"middle"
>>> answer_label("GCCAGGACGAAAGTCGGC (((..(((....))))))")
"top"

Each sequence maps to one class by Tm. Which class for GCGGTGCGAAAGCGCAGC ((.(.((....)).).)) ? top

----------
# PROTOCOL TEXT: melting temperature; fluorescence melt of hairpins on a sequencing array, two-state fit, raised by 9.35 °C to match UV melts
# TEST PARAMETERS: sodium 0.088 M
Friendly reminder: Tm below 50 °C is met, at or above is not met.

Please review the entries below; each comes with its answer.
>>> answer_label("GACGTGGGAAACTACGTC (((((.(....).)))))")
"not met"
>>> answer_label("GAATCCGGAAACGGGTTC (((.(((....))).)))")
"not met"
>>> answer_label("GCTAGCGAAAGCTAAGC ((((((....))).)))")
"not met"
>>> answer_label("GAACGAGCGAAAGCTTTC (((..(((....))))))")
"met"

Dear reviewer, please state whether GTGGATTCGAAAGAACAC (((..(((....)))))) has Tm strictly beneath 50 °C. met

Dear reviewer, please state whether GGTTATGGAAACATAGCC ((.((((....)))).)) has Tm strictly beneath 50 °C. met

Dear reviewer, please state whether GCCCTCTCGAAAGAGGGC (((..(((....)))))) has Tm strictly beneath 50 °C. not met

Dear reviewer, please state whether GGGGCCGAAAGGCAGCCC ((((((....)))..))) has Tm strictly beneath 50 °C. not met

Dear reviewer, please state whether TAGAGGAAACTCTA (((((....))))) has Tm strictly beneath 50 °C. met

Dear reviewer, please state whether GTCAGGCGAAAGCCAGAC (((.(((....))).))) has Tm strictly beneath 50 °C. not met

----------
# PROTOCOL TEXT: folding enthalpy; higher = less favourable; fluorescence melt of hairpins on a sequencing array, two-state fit
# TEST PARAMETERS: sodium 0.088 M
MEASURED ENDPOINT: folding enthalpy (kcal/mol)
Answers are plain numbers, in kcal/mol.

// solved cases for folding enthalpy follow
>>> result_value("GCAGCGCGAAAGCGACGC ((..(((....)))..))")
-18.4
>>> result_value("GGGTCTCGAAAGAGCCCC (((.(((....))).)))")
-37.9
>>> result_value("GTCGGGGGAAACCCCGGC (.(((((....))))).)")
-22

Each sequence below has a recorded value; state its folding enthalpy.
1. GCCCAGCGAAAGCTTTGC ((..(((....)))..))
2. GATCCAGCCCTGGATC ((((((....))))))
3. GCGTAGCGAAAGCTAAGC ((.((((....)))).))
4. GCTAGGCGAAAGCTTGGC ((.(.((....)).).))
5. GGTTGCGAAAGCATACC ((((((....))).)))
6. GTCTGCCGAAAGGCCGAC (((.(((....))).)))

-7.49
-48
-16.1
-20.6
-28.7
-25.6

Each sequence below has a recorded value; state its folding enthalpy.
1. GCGTAAGGACGC ((((....))))
2. GTCGGCGAAAGCCCGAC ((((((....))).)))
3. GCTCAACCGAAAGGTAGC (((..(((....))))))
4. GTCCGCCGAAAGGCAGAC (((.(((....))).)))

-19.7
-21.9
-18.4
-21.7
